Protocol Description: Human pharmacokinetic study, oral buspirone BID for 25 days
Particulars: human, blood, po
Endpoint Name: concentration at 2 h

# lookup: concentration at 2 h of O=C1CC2(CCCC2)CC(=O)N1CCCCN1CCN(c2ncccn2)CC1
< 1 ng/mL

====

Study System: human 5-HT1A receptor (Homo sapiens)
Construct: expressed in transfected cells; host or cells: HEK293 cells
Sequence (P08908 1-422): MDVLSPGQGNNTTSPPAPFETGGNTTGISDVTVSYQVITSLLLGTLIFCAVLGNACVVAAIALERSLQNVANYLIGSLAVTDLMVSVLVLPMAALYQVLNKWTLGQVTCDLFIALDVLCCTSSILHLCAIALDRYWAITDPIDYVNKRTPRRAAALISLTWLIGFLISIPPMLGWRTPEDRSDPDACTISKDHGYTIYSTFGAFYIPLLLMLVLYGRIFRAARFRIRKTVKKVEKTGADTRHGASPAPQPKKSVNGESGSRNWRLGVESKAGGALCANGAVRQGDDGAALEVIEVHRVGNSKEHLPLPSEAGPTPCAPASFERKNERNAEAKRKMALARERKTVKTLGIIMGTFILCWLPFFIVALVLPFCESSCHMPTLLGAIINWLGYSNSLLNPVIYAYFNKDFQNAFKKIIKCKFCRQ
Protocol Description: 5-HT1A receptor binding assay
pIC50: −log10 of the molar value.
Endpoint Name: pIC50

# lookup: pIC50 of c1cnc(N2CCNCC2)nc1
< 6.00

====

Study System: human 5-HT1A receptor (Homo sapiens)
Endpoint Name: Ki (nM)
Kindly provide the numeric value in nM only, without the unit symbol.

# lookup: Ki of O=C1CC2(CCCC2)CC(=O)N1CCCCN1CCN(c2ncc(O)cn2)CC1
464

Next up: O=C1CC2(CCCC2)C(O)C(=O)N1CCCCN1CCN(c2ncccn2)CC1 (stereo not drawn)
57

Next up: O=C1CC2(CCC(O)C2)CC(=O)N1CCCCN1CCN(c2ncccn2)CC1 (stereo not drawn)
326

====

Study System: human 5-HT1A receptor (Homo sapiens)
Construct: expressed in transfected cells; host or cells: HEK293 cells
Protocol Description: 5-HT1A receptor binding assay
Particulars: membranes of HEK293 cells, 1 nM 3H-8-OH-DPAT; read-out: IC50
Endpoint Name: pIC50
Lab note — pIC50 values are minus log10 of concentrations in M.

Quick check: pIC50 on human 5-HT1A receptor (Homo sapiens), item O=C1CC2(CCCC2)CC(=O)N1CCCCN1CCN(c2ncc(O)cn2)CC1 [5-OH-buspirone (BMY 14131)] ?
6.03

Next up: O=C1CC2(CCCC2)C(O)C(=O)N1CCCCN1CCN(c2ncccn2)CC1 (stereo not drawn) [BMY 28674]
6.94

Next up: O=C1CC2(CCC(O)C2)CC(=O)N1CCCCN1CCN(c2ncccn2)CC1 (stereo not drawn) [3-OH-buspirone (BMY 14295)]
6.19

# credit: patent US20010009913A1
